Each entry below carries its recorded aqueous solubility.
condition-set: pH 6.8
Report only the number, with the unit µg/mL understood.

Example compounds with recorded aqueous solubility:
{"columns": ["molecular-string", "units-of-measure", "aqueous solubility"],
 "data": [
  ["CCN(Cc1ccccc1)C(=O)c1cccnc1N", "µg/mL", 36.7],
  ["Cc1nccc(C2CCN(Cc3ncc[nH]3)CC2)n1", "µg/mL", 80.4],
  ["Cn1cnnc1CNc1ccccc1C#N", "µg/mL", 33.6],
  ["Cc1c(C(=O)NCCCN(C)C)sc2ncnc(Nc3ccc(F)cc3OC(C)C)c12", "µg/mL", 23.6],
  ["Cc1ccc(-c2cc(NC(=O)CN3CCOCC3)on2)cc1", "µg/mL", 52.1],
  ["Cc1ccc2nc(C)c(C(=O)N3CCC(C(=O)Nc4ccncc4)CC3)cc2c1", "µg/mL", 52.5]
]}

Exam item: GET /values?readout=aqueous solubility&item= COc1ccc(C(=O)N2CCCC2)cc1NC(C)C
Marked response: 35.9

Exam item: GET /values?readout=aqueous solubility&item= Clc1ccccc1C(c1ccccc1)(c1ccccc1)n1ccnc1
Marked response: 3.73

Exam item: GET /values?readout=aqueous solubility&item= Cc1ccc(-c2ccnc(O)c2C#N)cc1
Marked response: 11.7

Exam item: GET /values?readout=aqueous solubility&item= N#Cc1ccc(N2CCc3c(ncn3C3CC3)C2)nc1
Marked response: 45.5

Exam item: GET /values?readout=aqueous solubility&item= CN(C)[C@@H]1CN(C(=O)c2cc3ccc(F)cc3[nH]2)C[C@H]1O
Marked response: 55.1

Exam item: GET /values?readout=aqueous solubility&item= Cc1ccccc1OC1CCN(C(=O)Nc2ccc3c(c2)ncn3C)CC1
Marked response: 26.7

Exam item: GET /values?readout=aqueous solubility&item= Nc1nc2c3ccccc3oc2c2ccccc12
Marked response: 0.25

Exam item: GET /values?readout=aqueous solubility&item= O=C(NCCc1csc(N2CCCC2)n1)N1CCSCC1
Marked response: 52.6

Exam item: GET /values?readout=aqueous solubility&item= CN1C(=O)COc2ccc(NC(=O)CCN3C(=O)COc4ccc(Cl)cc43)cc21
Marked response: 1.5

###

parameter-measured: intrinsic clearance, human liver microsomes

{"columns": ["molecule", "readout-value"],
 "data": [
  ["CC(=O)N(C)[C@@H]1CO[C@@H]2CCN(C[C@]3(O)CC[C@@H](C(C)(C)C)CC3)C[C@@H]2C[C@@]1(C)O", "65 mL/min/kg"],
  ["CN1CCN(c2cccc(C#N)n2)CC1", "≤ 4.74 mL/min/kg"],
  ["Cc1sc2nc(CN3CCCC3)nc(N)c2c1C", "≤ 4.74 mL/min/kg"],
  ["CCc1nc(CC)n(Cc2nc(C)cs2)n1", "≤ 4.74 mL/min/kg"],
  ["Cc1cccnc1Nc1cccc(C2CCCN(CC(=O)Nc3nccs3)C2)n1 (stereo unspecified)", "89.9 mL/min/kg"]
]}

Exam item: GET /values?readout=intrinsic clearance, human liver microsomes&item= Cc1cc(C)c2[nH]c(C(=O)N3CC[C@@](O)(CC(C)C)[C@@H](Oc4ccc(F)cc4)C3)c(C)c2c1
Marked response: 140 mL/min/kg

Exam item: GET /values?readout=intrinsic clearance, human liver microsomes&item= CN(C)[C@@H]1CN(C(=O)COc2ccccc2)C[C@H]1O
Marked response: ≤ 4.74 mL/min/kg

Exam item: GET /values?readout=intrinsic clearance, human liver microsomes&item= CN(CC(=O)N(C)C)Cc1cc(C#N)ccc1F
Marked response: ≤ 4.74 mL/min/kg

Exam item: GET /values?readout=intrinsic clearance, human liver microsomes&item= CCOc1ccc(OCCN2CCN(C(C)=O)CC2)cc1
Marked response: ≤ 4.74 mL/min/kg

Exam item: GET /values?readout=intrinsic clearance, human liver microsomes&item= CS(=O)(=O)Cc1ccn(-c2ccccc2)n1
Marked response: ≤ 4.74 mL/min/kg

Exam item: GET /values?readout=intrinsic clearance, human liver microsomes&item= Cc1ccc(-c2noc3nc(C)cc(C(=O)O)c23)cc1
Marked response: ≤ 4.74 mL/min/kg

###

Output MET for records whose intrinsic clearance, rat liver microsomes is lower than 200 mL/min/kg, NOT MET for records at or above 200 mL/min/kg.

The following compounds have reported results that may help.
{"columns": ["compound", "classification"],
 "data": [
  ["Cc1ccccc1COC1CN(C(=O)Cn2c(=O)[nH]c3ccccc32)C1", "NOT MET"],
  ["Cc1ccc(-n2ccnc2-c2ccoc2)c2cccnc12", "NOT MET"],
  ["Cc1cncc(C2CCN(Cc3cnccn3)CC2)n1", "MET"]
]}

Exam item: hey, is intrinsic clearance, rat liver microsomes for C[C@H](Cn1nc2c(cc1=O)CCCCC2)NC(=O)Cc1cccs1 lower than 200 mL/min/kg or not?
Marked response: NOT MET

Exam item: hey, is intrinsic clearance, rat liver microsomes for CC[C@@H]1C(=O)N(C)c2cnc(-n3ccnc3-c3ccc(F)cc3)nc2N1c1ccn(C)n1 lower than 200 mL/min/kg or not?
Marked response: NOT MET

Exam item: hey, is intrinsic clearance, rat liver microsomes for Cn1ccnc1C1CCN(C(=O)COCc2nc3cc(F)ccc3[nH]2)CC1 lower than 200 mL/min/kg or not?
Marked response: MET

Exam item: hey, is intrinsic clearance, rat liver microsomes for O=S(=O)(c1cccc2c(O)nccc12)N1CCCNCC1 lower than 200 mL/min/kg or not?
Marked response: MET

Exam item: hey, is intrinsic clearance, rat liver microsomes for CC(C)(C)c1cc(NS(=O)(=O)c2c(Cl)cccc2Cl)cc(C(C)(C)C)c1 lower than 200 mL/min/kg or not?
Marked response: NOT MET

Exam item: hey, is intrinsic clearance, rat liver microsomes for Cc1cccc(NC2CCN(Cc3ccncc3)CC2)n1 lower than 200 mL/min/kg or not?
Marked response: NOT MET

###

Each entry below carries its recorded log10 intrinsic clearance, rat liver microsomes.
Would you kindly interpret these values as log10 of intrinsic clearance, rat liver microsomes expressed in mL/min/kg?

Example compounds with recorded log10 intrinsic clearance, rat liver microsomes:
{"columns": ["compound", "readout-value"],
 "data": [
  ["Cn1c(CNC(=O)Cc2ccccc2)nc2ccccc21", 1.95],
  ["CCOC(=O)Nc1ccc2c(c1)N(C(=O)CN(CC)CC)c1ccccc1CC2", 2.56]
]}

Please turn your attention to the following entry.
Exam item: GET /values?readout=log10 intrinsic clearance, rat liver microsomes&item= CC(C)c1noc(-c2ccc(N(C)Cc3cccnc3)nc2)n1
Marked response: 2.66

###

Each entry below carries its recorded intrinsic clearance, human liver microsomes.

Example molecules with recorded intrinsic clearance, human liver microsomes:
{"columns": ["molecular-string", "readout-value"],
 "data": [
  ["CCCN(Cc1ccccc1)C(=O)CC1(N)CCC1", "≤ 4.74 mL/min/kg"],
  ["COc1cccc(CN2CCc3nc(-c4cnccn4)nc(O)c3C2)c1", "≤ 4.74 mL/min/kg"]
]}

Exam item: GET /values?readout=intrinsic clearance, human liver microsomes&item= O=C1CCCN1CCCN1CCC(n2c(=O)[nH]c3ccccc32)CC1
Marked response: ≤ 4.74 mL/min/kg

###

parameter-measured: log10 intrinsic clearance, rat liver microsomes (log10 of the value in mL/min/kg)
Would you kindly interpret these values as log10 of intrinsic clearance, rat liver microsomes expressed in mL/min/kg?

Example compounds with recorded log10 intrinsic clearance, rat liver microsomes:
{"columns": ["compound", "readout-value"],
 "data": [
  ["CC(C(=O)N1CCc2sccc2C1)N1CCCN(c2ccccc2C#N)CC1 (stereo unspecified)", 3.63],
  ["CCc1nnc(Oc2cccnc2)c(C#N)c1CC", 1.33],
  ["CCC(C)(C)N1CCN(C(=O)NCCc2cc(C)no2)CC1", 2.44],
  ["CS(=O)(=O)NCc1cc2n(n1)CCN(C1Cc3ccccc3C1)C2", 1.44],
  ["Cc1cc(Nc2cc(N)ncn2)c(=O)n2c1C(=O)NC21CCCCC1", 1.39],
  ["Cc1nc(-c2ccc(C)c(O)c2)n(C(C)(C)C)n1", 2.09],
  ["CC(C)c1noc2nc(C3CC3)cc(C(=O)N3CCN(C)C(=O)C3)c12", 1.32],
  ["CCc1ccc(-c2nccn2CC(=O)Nc2ccc(C)cc2F)nc1", 2.80],
  ["Cc1ccc(F)cc1NCc1csc(-c2cnn(C)c2)n1", 2.60],
  ["Cn1nccc1CC1CCN(C2CCCC2)CC1", 2.41]
]}

Exam item: GET /values?readout=log10 intrinsic clearance, rat liver microsomes&item= O=C(NC1CCCCC1)C1=CCN(C(=O)C2CC2)C1
Marked response: 1.47

Exam item: GET /values?readout=log10 intrinsic clearance, rat liver microsomes&item= O=C(NCCc1cn2c(n1)CCCC2)c1ccccn1
Marked response: 1.43

Exam item: GET /values?readout=log10 intrinsic clearance, rat liver microsomes&item= CCNc1ccnc(N(C)Cc2nc3ccccc3n2C)n1
Marked response: 2.64

Exam item: GET /values?readout=log10 intrinsic clearance, rat liver microsomes&item= N#Cc1cnc2cc(F)cc(F)c2c1NC1CCN(CC(N)=O)CC1
Marked response: 1.44

Exam item: GET /values?readout=log10 intrinsic clearance, rat liver microsomes&item= O=C(NC1CCCCC1)N1CCc2nc3ccccn3c(=O)c2C1
Marked response: 2.09

Exam item: GET /values?readout=log10 intrinsic clearance, rat liver microsomes&item= C[C@H](Cc1cc2c(c(C(N)=O)c1)N(CCCO)CC2)NCCOc1ccccc1OCC(F)(F)F
Marked response: 2.50

Exam item: GET /values?readout=log10 intrinsic clearance, rat liver microsomes&item= CN(C)c1cccc(C(=O)N2CCCC(c3cccc(-c4cccs4)n3)C2)c1 (stereo unspecified)
Marked response: 3.56

Exam item: GET /values?readout=log10 intrinsic clearance, rat liver microsomes&item= COc1cc(CN(C)C(=O)Nc2cccc(C)c2C)ccc1O
Marked response: 2.14

Exam item: GET /values?readout=log10 intrinsic clearance, rat liver microsomes&item= Cc1nc2c(c(N(C)Cc3ccccc3)n1)CCN(Cc1ccccc1)C2
Marked response: 3.62

Exam item: GET /values?readout=log10 intrinsic clearance, rat liver microsomes&item= O=C(C(c1ccccc1)c1ccccc1)N1CCOCC(Cc2ccc3cnccc3c2)C1 (stereo unspecified)
Marked response: 2.81

Exam item: GET /values?readout=log10 intrinsic clearance, rat liver microsomes&item= CC(C)CN1CC[C@H](c2nc3ccc(C#N)cc3[nH]2)C1
Marked response: 1.88

Exam item: GET /values?readout=log10 intrinsic clearance, rat liver microsomes&item= CN1CCC[C@@H]1CCO[C@](C)(c1ccccc1)c1ccc(Cl)cc1
Marked response: 3.04

Exam item: GET /values?readout=log10 intrinsic clearance, rat liver microsomes&item= COCCN1CCOc2nc3c(C)cccc3cc2C1
Marked response: 2.95

Exam item: GET /values?readout=log10 intrinsic clearance, rat liver microsomes&item= Cc1nnc(-c2ccc3occ(-c4ccc(S(C)=O)cc4)c3c2)o1 (stereo unspecified)
Marked response: 1.79

Exam item: GET /values?readout=log10 intrinsic clearance, rat liver microsomes&item= Cc1cnc(Cl)nc1-c1ccc(N(Cc2ccc(CNC(=O)C(F)F)cc2)C(=O)c2ccc(O)cc2O)cc1
Marked response: 1.93

Exam item: GET /values?readout=log10 intrinsic clearance, rat liver microsomes&item= Cc1cc(C)n(-c2cc(Nc3ccccc3C)ncn2)n1
Marked response: 2.46

Exam item: GET /values?readout=log10 intrinsic clearance, rat liver microsomes&item= N#Cc1cccc(CN2CCOC[C@H](O)C2)c1
Marked response: 1.08

Exam item: GET /values?readout=log10 intrinsic clearance, rat liver microsomes&item= O=c1c2ccccc2nnn1CCOc1ccc(F)cc1
Marked response: 2.09
